Assay: qHTS assay to identify small molecule antagonists of the thyroid receptor (TR) signaling pathway - cell viability counter screen (AID 743064); further: nearly all actives have a fitted effect of over 50% in size
Conditions: GH3.TRE-Luc viability, CellTiter-Fluor, 24 h; series mostly up to 70.3 µM
Results filed as inconclusive are left out. Activity calls are given as the source filed them. The call rests on the fitted dose curve; in most records, active means well fitted cell-killing curve with a large enough effect in the repeat runs; inconclusive means weak or mixed curves, or effect the other way; inactive means no such curve, though single readings can be large or run the other way.
A correct response names exactly one class from true (active), false (inactive)

[[record]]
molecule = "Cc1cc(N=Nc2ccccc2C)ccc1N"
cat = "true"


input: So what was the verdict on `c1ccc2c(c1)[nH]c1cnccc12` in this test?
output: false

input: So what was the verdict on `Cn1cc(C2=C(c3cn(C4CCN(Cc5ccccn5)CC4)c4ccccc34)C(=O)NC2=O)c2ccccc21` in this test?
output: false

input: So what was the verdict on `[Hg+2].[I-].[I-]` in this test?
output: true

input: So what was the verdict on `CCN(CC)c1c([N+](=O)[O-])cc(C(F)(F)F)c(N)c1[N+](=O)[O-]` in this test?
output: false

input: So what was the verdict on O=C1c2ccccc2C(=O)C1C(=O)C(c1ccccc1)c1ccc(Cl)cc1 (configuration not stated) in this test?
output: true

input: So what was the verdict on `CC(=O)OC1(c2ccccc2)CCN(CCc2ccccc2)CC1` in this test?
output: true

input: So what was the verdict on `Oc1ccc(C2(c3ccc(O)cc3)c3ccccc3-c3ccccc32)cc1` in this test?
output: true

input: So what was the verdict on CC1(C)C(/C=C(\Cl)C(F)(F)F)C1C(=O)OC(C#N)c1cccc(Oc2ccccc2)c1 (configuration not stated) in this test?
output: false

input: So what was the verdict on CNC(C)Cc1ccc2c(c1)OCO2 (configuration not stated) in this test?
output: false

input: So what was the verdict on `CCOC(=O)CC(=O)CCl` in this test?
output: true

input: So what was the verdict on `O=C(Nc1ccc2[nH]ccc2c1)c1cc2cc(F)ccc2n1Cc1cccc(F)c1` in this test?
output: true

* * *

Assay: qHTS assay to identify small molecule antagonists of the vitamin D receptor (VDR) signaling pathway - cell viability counter screen (AID 743225); further: nearly all actives have a fitted effect of over 50% in size
Conditions: VDR-bla HEK293T viability, CellTiter-Glo luminescence, 16 h; series mostly up to 61 µM
Inconclusive results are not listed. Activity calls are given as the source filed them. The call rests on the fitted dose curve; in most records, active means well fitted cell-killing curve with a large enough effect in the repeat runs; inconclusive means weak or mixed curves, or effect the other way; inactive means no such curve, though single readings can be large or run the other way.
A correct response names exactly one class from 1 (active), 0 (inactive)

Use these answered entries as a reference point.
[[record]]
molecule = "COc1ccc(/C(=C/C(=O)N2CCOCC2)c2ccc(Cl)cc2)cc1OC"
cat = 0

[[record]]
molecule = "CCCCCCCCCCCCCC[P+](CCCCCC)(CCCCCC)CCCCCC (tested in a mixture with another compound)"
cat = 1

[[record]]
molecule = "CC(C)(C)C(O)/C(=C\\c1ccc(Cl)cc1Cl)n1cncn1 (stereo not given)"
cat = 1


input: So what was the verdict on `CC(C)(C)OO` in this test?
output: 0

input: So what was the verdict on `CC(C)OS(C)(=O)=O` in this test?
output: 0

* * *

Test: qHTS assay to identify small molecule antagonists of the TGF-beta/Smad signaling pathway - cell viability counter screen (AID 1346824); further: nearly all actives have a fitted effect of over 50% in size
Settings: SBE-bla HEK293T viability, CellTiter-Glo luminescence; series mostly up to 76.8 µM
Inconclusive results are not listed. Activity calls are given as the source filed them. Calls come from the whole dose curve; as a rule, active = well fitted cell-killing curve with a large enough effect in the repeat runs; inconclusive = weak or mixed curves; inactive = flat fitted curve, though single readings scatter.
A correct response names exactly one class from active, inactive

Use these answered entries as a reference point.
[[record]]
compound = "ClC1=C(Cl)[C@]2(Cl)[C@@H]3[C@@H](Cl)[C@@H](Cl)C[C@@H]3[C@@]1(Cl)C2(Cl)Cl"
cat = "inactive"

[[record]]
compound = "CCOP(=S)(OCC)SCCS(=O)(=O)CC"
cat = "inactive"

[[record]]
compound = "CC1(C)CN=C(NN=C(/C=C/c2ccc(C(F)(F)F)cc2)/C=C/c2ccc(C(F)(F)F)cc2)NC1"
cat = "active"

[[record]]
compound = "CC(=O)[O-].CC(=O)[O-].[Hg+2]"
cat = "active"

[[record]]
compound = "O=C(CBr)c1ccc(O)cc1"
cat = "inactive"

[[record]]
compound = "CC(C)CC(C)(c1ccc(O)cc1)c1ccc(O)cc1"
cat = "inactive"


input: So what was the verdict on CCCCCCCCCCCCCN1CC(C)OC(C)C1 (stereo not drawn) in this test?
output: inactive

input: So what was the verdict on CCOP(=S)(OCC)OC(Cl)C(Cl)(Cl)Cl (stereo not drawn) in this test?
output: inactive

input: So what was the verdict on CC(C)(C)C(O)C(Oc1ccc(-c2ccccc2)cc1)n1cncn1 (stereo not drawn) in this test?
output: inactive

input: So what was the verdict on `Oc1ccc(C(=C(Cl)Cl)c2ccc(O)cc2)cc1` in this test?
output: inactive

input: So what was the verdict on `CCN(CC)C(=S)[S-].CCN(CC)C(=S)[S-].[Zn+2]` in this test?
output: active

input: So what was the verdict on `CCN` in this test?
output: inactive

input: So what was the verdict on `CCOC(=O)C1(c2ccccc2)CCN(CCC(C#N)(c2ccccc2)c2ccccc2)CC1` in this test?
output: inactive

input: So what was the verdict on CCOC(=O)OC1=C(c2cc(C)ccc2C)C(=O)NC12CCC(OC)CC2 (stereo not drawn) in this test?
output: inactive

input: So what was the verdict on `Cc1cc(SCc2sc(-c3ccc(C(F)(F)F)c(F)c3)nc2C)ccc1OCC(=O)O` in this test?
output: inactive

input: So what was the verdict on `CC(C)(C)OO` in this test?
output: inactive

input: So what was the verdict on `C=COCCCl` in this test?
output: inactive

input: So what was the verdict on `Cc1cc(C)c(C2=C(OC(=O)CC(C)(C)C)C3(CCCC3)OC2=O)c(C)c1` in this test?
output: inactive

input: So what was the verdict on `CSCCCN=C=S` in this test?
output: inactive

src = PubChem BioAssay (Tox21)
